Target: H1047R PIK3CA enzyme (Homo sapiens, UniProt P42336, H1047R)
Sequence (P42336 whole entry H1047R): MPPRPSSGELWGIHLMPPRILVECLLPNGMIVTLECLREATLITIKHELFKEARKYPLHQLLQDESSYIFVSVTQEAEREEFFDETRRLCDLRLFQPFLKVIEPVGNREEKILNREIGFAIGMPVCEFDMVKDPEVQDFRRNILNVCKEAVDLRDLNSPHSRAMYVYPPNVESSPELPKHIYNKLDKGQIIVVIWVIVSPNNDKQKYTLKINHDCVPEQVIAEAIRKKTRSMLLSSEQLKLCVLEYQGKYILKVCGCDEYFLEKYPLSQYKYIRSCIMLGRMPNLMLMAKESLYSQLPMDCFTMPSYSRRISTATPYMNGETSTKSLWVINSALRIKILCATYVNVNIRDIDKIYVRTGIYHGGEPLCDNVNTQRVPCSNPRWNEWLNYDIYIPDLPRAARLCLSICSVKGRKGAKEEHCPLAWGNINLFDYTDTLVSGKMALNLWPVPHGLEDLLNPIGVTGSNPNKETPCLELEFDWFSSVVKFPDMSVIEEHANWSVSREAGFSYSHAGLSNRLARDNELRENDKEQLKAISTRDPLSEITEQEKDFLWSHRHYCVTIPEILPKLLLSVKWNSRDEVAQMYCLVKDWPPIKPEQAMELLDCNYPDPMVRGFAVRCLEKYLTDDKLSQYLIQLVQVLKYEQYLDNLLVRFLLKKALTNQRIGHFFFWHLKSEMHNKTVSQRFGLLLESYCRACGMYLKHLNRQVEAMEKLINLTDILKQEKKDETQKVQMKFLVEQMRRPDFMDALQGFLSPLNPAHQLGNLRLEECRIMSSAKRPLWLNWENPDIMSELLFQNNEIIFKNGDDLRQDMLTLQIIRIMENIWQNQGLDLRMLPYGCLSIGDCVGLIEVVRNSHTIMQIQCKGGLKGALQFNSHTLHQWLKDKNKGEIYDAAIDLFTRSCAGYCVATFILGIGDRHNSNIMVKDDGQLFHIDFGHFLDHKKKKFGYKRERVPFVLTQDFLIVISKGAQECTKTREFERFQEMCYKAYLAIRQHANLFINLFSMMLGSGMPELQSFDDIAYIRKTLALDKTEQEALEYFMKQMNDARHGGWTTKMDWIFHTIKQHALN
Sequence (P27986 whole entry partner): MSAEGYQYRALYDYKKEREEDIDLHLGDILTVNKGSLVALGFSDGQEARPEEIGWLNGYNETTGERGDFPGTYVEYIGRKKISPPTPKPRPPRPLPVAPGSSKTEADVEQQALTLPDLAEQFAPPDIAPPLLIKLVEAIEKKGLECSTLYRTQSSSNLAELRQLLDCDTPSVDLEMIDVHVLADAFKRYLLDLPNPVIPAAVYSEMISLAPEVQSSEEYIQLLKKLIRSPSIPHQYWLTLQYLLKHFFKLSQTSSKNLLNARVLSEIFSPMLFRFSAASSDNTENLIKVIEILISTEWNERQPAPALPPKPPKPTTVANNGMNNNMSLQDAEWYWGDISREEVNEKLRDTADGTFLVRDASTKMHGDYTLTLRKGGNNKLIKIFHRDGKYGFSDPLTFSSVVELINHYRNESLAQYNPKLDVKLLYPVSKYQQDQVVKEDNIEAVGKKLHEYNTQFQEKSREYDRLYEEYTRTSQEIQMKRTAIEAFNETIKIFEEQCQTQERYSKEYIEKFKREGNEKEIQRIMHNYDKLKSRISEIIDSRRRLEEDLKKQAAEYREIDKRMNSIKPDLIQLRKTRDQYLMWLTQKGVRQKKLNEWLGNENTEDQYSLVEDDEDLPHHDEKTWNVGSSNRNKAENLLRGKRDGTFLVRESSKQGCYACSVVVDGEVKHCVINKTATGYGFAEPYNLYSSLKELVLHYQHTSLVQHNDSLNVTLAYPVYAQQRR
Experiment: ADP-Glo Biochemical PIK3CA Kinase Assay
reported_metric: IC50

Take a look at these entries with their results.
compound="O=C(Nc1cc(N2CCC(F)(F)C2)nc2c1C(c1cc(F)ccc1Cl)NC2=O)c1cc(F)cc(C(F)(F)F)c1 (stereo not drawn)" reported_metric=IC50 result="≤ 0.1 µM"
compound="O=C(Nc1cc(-c2cn3ccnc3cn2)cc2c1C(c1cc(F)ccc1Cl)NC2=O)c1cc(F)cc(C(F)(F)F)c1 (stereo not drawn)" reported_metric=IC50 result="≤ 0.1 µM"
compound="O=C1N[C@H](c2cc(F)ccc2Cl)c2c(NC(=O)[C@@H]3CCC[C@@H](OC(F)(F)F)C3)cccc21 (single isomer, unassigned)" reported_metric=IC50 result="10 to 100 µM"
compound="Cc1ccccc1C1NC(=O)c2cccc(NC(=O)c3cc(F)cc(C(F)(F)F)c3)c21 (stereo not drawn)" reported_metric=IC50 result="0.1 to 0.5 µM"
compound="NCc1cc(NC(=O)N2C[C@@](O)(C(F)F)c3cc(F)ccc32)c2c(c1)C(=O)N[C@@H]2c1cc(F)ccc1Cl (single isomer, unassigned)" reported_metric=IC50 result="≤ 0.1 µM"

# IC50 of N#Cc1ccc(C2NC(=O)c3cccc(NC(=O)c4cc(F)cc(C(F)(F)F)c4)c32)c(Cl)c1 (stereo not drawn) = 10 to 100 µM

# IC50 of COc1ccc(Oc2cc(NC(=O)c3cc(F)cc(C(F)(F)F)c3)c3c(c2)C(=O)NC3c2cc(F)ccc2Cl)nn1 (stereo not drawn) = ≤ 0.1 µM

----------
List of IC50 values.
Biological target: H1047R PIK3CA enzyme (Homo sapiens, UniProt P42336, H1047R)
Assay: ADP-Glo Biochemical PIK3CA Kinase Assay

compound="O=C(Nc1cc(-c2ccc3ncnn3c2)cc2c1[C@H](c1cc(F)ccc1Cl)NC2=O)c1cc(F)cc(C(F)(F)F)c1 (single isomer, unassigned)" reported_metric=IC50 result="≤ 0.1 µM"
compound=CC(C)(O)c1cc(NC(=O)c2cc(F)cc(Cl)c2)c2c(c1)C(=O)N[C@H]2c1cc(F)ccc1Cl reported_metric=IC50 result="≤ 0.1 µM"
compound=O=C(Nc1cccc2c1[C@H]([C@@H]1CCCC(F)(F)C1)NC2=O)c1cc(F)cc(C(F)(F)F)c1 reported_metric=IC50 result="1 to 10 µM"

# IC50 of O=C1NC(c2cc(F)ccc2Cl)c2c(NC(=O)C3CCCOC3)cc(-c3ccc4ncnn4c3)cc21 (centres unmarked) = 10 to 100 µM

# IC50 of O=C(Nc1cc(-c2cnn(C(F)F)c2)cc2c1C(c1cc(F)ccc1Cl)NC2=O)c1cc(F)cc(Cl)c1 (centres unmarked) = ≤ 0.1 µM

# IC50 of O=C1N[C@H](c2cc(F)ccc2Cl)c2c(NC(=O)N3C[C@@H](C(F)F)c4ccccc43)cccc21 (single isomer, unassigned) = 1 to 10 µM

# IC50 of N#CCc1cc(NC(=O)N2C[C@](O)(C(F)F)c3cc(F)ccc32)c2c(c1)C(=O)N[C@@H]2c1cc(F)ccc1Cl (single isomer, unassigned) = 1 to 10 µM

# IC50 of "C[C@@H](CCC(F)(F)F)C(=O)Nc1cccc2c1[C@H](c1cc(F)ccc1Cl)NC2=O" = 1 to 10 µM

----------
Biological target: H1047R PIK3CA enzyme (Homo sapiens, UniProt P42336, H1047R)
Test: ADP-Glo Biochemical PIK3CA Kinase Assay
reported_metric: IC50

Take a look at these entries with their results.
compound="O=C(Nc1cc(-c2cnc3ncc(Cl)n3c2)cc2c1[C@H](c1cc(F)ccc1Cl)NC2=O)c1cc(F)cc(C(F)(F)F)c1 [Compound I-1985]" measured_target="H1047R PIK3CA enzyme (Homo sapiens, UniProt P42336, H1047R)" result="≤ 0.1 µM"
compound="C=CCCNC(=O)c1cc(NC(=O)c2cc(F)cc(C(F)(F)F)c2)c2c(c1)C(=O)NC2c1cc(F)ccc1Cl (stereo not shown) [Compound I-1422]" measured_target="H1047R PIK3CA enzyme (Homo sapiens, UniProt P42336, H1047R)" result="≤ 0.1 µM"
compound="O=C1NC(c2cc(F)ccc2Cl)c2c(CS(=O)(=O)c3ccccc3)cc(-c3ccc4ncnn4c3)cc21 (stereo not shown) [Compound I-1728]" measured_target="H1047R PIK3CA enzyme (Homo sapiens, UniProt P42336, H1047R)" result="10 to 100 µM"

# IC50 of O=C1NC(c2cc(F)ccc2Cl)c2c1cccc2-n1cnc2ccccc2c1=O (stereo not shown) [Compound I-1516] = 10 to 100 µM

----------
Biological target: H1047R PIK3CA enzyme (Homo sapiens, UniProt P42336, H1047R)
Assay: ADP-Glo Biochemical PIK3CA Kinase Assay
reported_metric: IC50

Take a look at these entries with their results.
compound=O=C(Nc1cc(-c2ccc3ncnn3c2)cc2c1[C@@H](c1cc(F)ccc1Cl)NC2=O)c1cc(F)cc2c1NC(=O)C2(F)F result="1000 to 10000 nM"
compound="O=C(Nc1cc(-c2cn3ncnc3cc2F)cc2c1C(c1cc(F)ccc1Cl)NC2=O)c1cc(F)cc(C(F)(F)F)c1 (centres unmarked)" result="≤ 100 nM"
compound="O=C1NC(c2ccccc2)c2c(NC(=O)c3csc4ccccc34)cccc21 (centres unmarked)" result="100 to 500 nM"
compound="Nc1cc(NC(=O)c2cc(F)cc(C(F)(F)F)c2)c2c(c1)C(=O)NC2c1cc(F)ccc1Cl (centres unmarked)" result="≤ 100 nM"
compound="CC(C)c1cc(N)n(C(=O)Nc2cccc3c2C(c2cc(F)ccc2Cl)NC3=O)n1 (centres unmarked)" result="10000 to 100000 nM"
compound="N[C@]1(C(F)(F)F)CN(C(=O)Nc2cccc3c2[C@@H](c2cc(F)ccc2Cl)NC3=O)c2ccc(F)cc21 (racemic)" result="1000 to 10000 nM"
compound="O=C(Nc1cc(Br)cc2c1C(c1cccc(F)c1F)NC2=O)c1cc(F)cc(C(F)(F)F)c1 (centres unmarked)" result="1000 to 10000 nM"
compound=CN(C)S(=O)(=O)Cc1cc(NC(=O)c2cc(F)cc(C(F)(F)F)c2)c2c(c1)C(=O)N[C@@H]2c1cc(F)ccc1Cl result="1000 to 10000 nM"
compound="O=C1N[C@@H](c2cc(F)ccc2Cl)c2c(NC(=O)N3C[C@@](O)(C(F)(F)F)c4cc(F)ccc43)cc(-n3ccccc3=O)cc21 (single isomer, unassigned)" result="1000 to 10000 nM"
compound="O=C1N[C@H](c2cc(F)ccc2Cl)c2c(NC(=O)N3C[C@@](O)(C(F)(F)F)c4cc(F)ccc43)cc(Cl)nc21 (single isomer, unassigned)" result="≤ 100 nM"

# IC50 of O=C(Nc1cccc2c1[C@H](C13C[C@H]4C[C@@H](C1)C[C@@H](C3)C4)NC2=O)c1cc(F)cc(C(F)(F)F)c1 (racemic) = 1000 to 10000 nM

# IC50 of O=C(CCc1ccccc1C(F)(F)F)Nc1cc(Br)cc2c1C(c1cc(F)ccc1Cl)NC2=O (centres unmarked) = 1000 to 10000 nM

# IC50 of "O=C(Nc1cc(Br)cc2c1[C@H](c1cc(Cl)ccc1Cl)NC2=O)c1cc(F)cc(C(F)(F)F)c1" = ≤ 100 nM

# IC50 of NCCc1cc(NC(=O)N2C[C@](O)(C(F)(F)F)c3cc(F)ccc32)c2c(c1)C(=O)N[C@H]2c1cc(F)ccc1Cl (single isomer, unassigned) = 100 to 500 nM

----------
Biological target: H1047R PIK3CA enzyme (Homo sapiens, UniProt P42336, H1047R)
Experiment: ADP-Glo Biochemical PIK3CA Kinase Assay
reported_metric: IC50

Take a look at these entries with their results.
compound="O=C1N[C@H](c2cc(F)ccc2Cl)c2c(NC(=O)N3C[C@](O)(C(F)(F)F)c4ccccc43)cc(Cl)cc21 (single isomer, unassigned)" measured_target="H1047R PIK3CA enzyme (Homo sapiens, UniProt P42336, H1047R)" reported_metric=IC50 result="1000 to 10000 nM"
compound="Cc1ccccc1C1NC(=O)c2c(C#N)ccc(NC(=O)c3cc(F)cc(C(F)(F)F)c3)c21 (centres unmarked)" measured_target="H1047R PIK3CA enzyme (Homo sapiens, UniProt P42336, H1047R)" reported_metric=IC50 result="100 to 500 nM"
compound=N#Cc1cnc2ncc(-c3cc(NC(=O)c4cc(F)cc(C(F)(F)F)c4)c4c(c3)C(=O)N[C@@H]4c3cc(F)ccc3Cl)cn12 measured_target="H1047R PIK3CA enzyme (Homo sapiens, UniProt P42336, H1047R)" reported_metric=IC50 result="500 to 1000 nM"
compound="O=C1NC(c2cccc(F)c2F)c2c(NC(=O)c3nsc4ccccc34)ccnc21 (centres unmarked)" measured_target="H1047R PIK3CA enzyme (Homo sapiens, UniProt P42336, H1047R)" reported_metric=IC50 result="500 to 1000 nM"

# IC50 of COc1ccc(CNCc2cc(NC(=O)c3nsc4ccccc34)c3c(c2)C(=O)NC3c2cc(F)ccc2Cl)cc1 (centres unmarked) = ≤ 100 nM
